target.under.test: recombinant human NAE enzyme (Homo sapiens, UniProt Q8TBC4)
Construct: His (N); made in house; host or cells: Sf9 insect cells (baculovirus, Bac-to-Bac)
Sequence (Q8TBC4 1-463): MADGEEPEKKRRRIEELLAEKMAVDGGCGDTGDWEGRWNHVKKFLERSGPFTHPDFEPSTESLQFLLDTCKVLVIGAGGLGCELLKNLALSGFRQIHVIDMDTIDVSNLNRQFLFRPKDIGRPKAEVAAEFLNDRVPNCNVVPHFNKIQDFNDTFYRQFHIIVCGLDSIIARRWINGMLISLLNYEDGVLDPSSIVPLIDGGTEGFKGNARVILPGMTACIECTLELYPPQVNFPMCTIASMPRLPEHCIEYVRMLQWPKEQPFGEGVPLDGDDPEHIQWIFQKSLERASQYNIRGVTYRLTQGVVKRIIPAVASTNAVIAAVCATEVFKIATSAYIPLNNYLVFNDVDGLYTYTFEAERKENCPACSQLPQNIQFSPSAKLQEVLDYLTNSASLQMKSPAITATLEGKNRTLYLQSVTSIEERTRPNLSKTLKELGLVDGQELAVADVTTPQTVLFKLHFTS
Sequence (Q13564 1-534 partner): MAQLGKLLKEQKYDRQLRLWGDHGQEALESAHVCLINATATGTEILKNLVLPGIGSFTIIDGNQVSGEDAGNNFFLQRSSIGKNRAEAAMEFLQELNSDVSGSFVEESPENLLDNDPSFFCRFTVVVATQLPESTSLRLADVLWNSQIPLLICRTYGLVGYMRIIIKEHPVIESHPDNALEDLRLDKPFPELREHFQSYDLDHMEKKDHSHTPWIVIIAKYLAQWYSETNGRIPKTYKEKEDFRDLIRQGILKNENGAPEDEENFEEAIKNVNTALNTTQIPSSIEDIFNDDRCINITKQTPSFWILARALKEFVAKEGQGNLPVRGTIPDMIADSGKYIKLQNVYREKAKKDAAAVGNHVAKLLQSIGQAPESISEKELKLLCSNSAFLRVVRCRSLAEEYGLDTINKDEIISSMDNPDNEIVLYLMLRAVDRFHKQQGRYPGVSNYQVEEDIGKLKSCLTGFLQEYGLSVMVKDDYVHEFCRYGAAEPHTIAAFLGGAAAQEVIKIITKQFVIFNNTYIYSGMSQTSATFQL
method: Nedd8-Activating Enzyme (NAE) HTRF Assay
Format: biochemical
stated.conditions: 20 μM ATP, bound given in nM
Entries annotated with measured IC50

Q: Under recombinant human NAE enzyme (Homo sapiens, UniProt Q8TBC4): IC50 value of Cc1nc(N[C@H]2CCc3ccccc32)nc(N[C@@H]2C[C@H](COS(N)(=O)=O)[C@@H](O)[C@H]2O)n1 ?
Ans: ≤ 500 nM

Q: Under recombinant human NAE enzyme (Homo sapiens, UniProt Q8TBC4): IC50 value of CN(c1ncnc2c1nc(-c1ccccc1)n2C)[C@@H]1C[C@@H](COS(N)(=O)=O)[C@@H](O)C1 ?
Ans: > 500 nM

Q: Under recombinant human NAE enzyme (Homo sapiens, UniProt Q8TBC4): IC50 value of NS(=O)(=O)OC[C@@H]1C[C@@H](Oc2cc(NC3CCCC3)ncn2)C[C@@H]1O ?
Ans: > 500 nM

Kindly review the next molecule as well.
Q: Under recombinant human NAE enzyme (Homo sapiens, UniProt Q8TBC4): IC50 value of NS(=O)(=O)OC[C@H]1C[C@@H](Nc2cc(N[C@H]3CCc4c(Cl)cccc43)ncn2)[C@H](O)[C@@H]1O ?
Ans: ≤ 500 nM

These entries and their values trace back to patent US9718788B2.
